- TARGET_SYSTEM: T1, Cynomolgus monkey BCMA (cynomolgus monkey)
- T1 construct: Soluble analyte in SPR; also called cyBCMA; Cyno BCMA
- PROTOCOL_DESCRIPTION: SPR, IgG immobilised, cyno BCMA analyte
- Description: All experiments were performed on a Bio-Rad Proteon XPR36 surface Plasmon resonance biosensor (Bio-Rad, Hercules, Calif.). […] The analysis temperature for the immobilization was 25° C. and the running buffer was HBS-T+(10 mM HEPES, 150 mM NaCl, 0.05% Tween-20, pH 7.4). […] The analysis temperature for the BCMA binding analysis was 37° C. or 25° C. in a running buffer of HBS-T+, supplemented with 1 mg/mL BSA. […] Immediately after the 50 nM BCMA injection, dissociation was monitored for 2 hours. […]
Assign labels as follows, please: 1.0 for Kd below 0.2 nM; 0.0 for Kd equal to or exceeding 0.2 nM.

{"columns": ["BINDER", "CAT"],
 "data": [
  ["COMBO_Rd4_0.6nM_C30 (antibody, V domains shown, IgG) VH: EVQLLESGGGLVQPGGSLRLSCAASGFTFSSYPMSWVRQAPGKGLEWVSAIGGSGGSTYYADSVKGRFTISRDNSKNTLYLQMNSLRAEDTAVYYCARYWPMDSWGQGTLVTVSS VL: EIVLTQSPGTLSLSPGERATLSCRASQSVSYMYLAWYQQKPGQAPRLLIYDASIRATGIPDRFSGSGSGTDFTLTISRLEPEDFAVYYCQQYKSWPLTFGQGTKVEIK", 0.0],
  ["C01_Rd4_6nM_C09 (antibody, V domains shown, IgG) VH: EVQLLESGGGLVQPGGSLRLSCAASGFTFSSYPMSWVRQAPGKGLEWVSATVGSGGSIGYADSVKGRFTISRDNSKNTLYLQMNSLRAEDTAVYYCARYWPMDSWGQGTLVTVSS VL: EIVLTQSPGTLSLSPGERATLSCACSQSVSSTYLAWYQQKPGQAPRLLIYDASSRAPGIPDRFSGSGSGTDFTLTISRLEPEDFAVYYCQQYSAWPLTFGQGTKVEIK", 0.0],
  ["A02_Rd4_6nM_C22 (antibody, V domains shown, IgG) VH: EVQLLESGGGLVQPGGSLRLSCAASGFTFSSYAMNWVRQAPGKGLEWVSAVLDSGGSTYYADSVKGRFTISRDNSKNTLYLQMNSLRAEDTAVYYCARYWPMTPWGQGTLVTVSS VL: EIVLTQSPGTLSLSPGERATLSCRASQSVSSSYLAWYQQKPGQAPRLLMYDASIRATGIPDRFSGSGSGTDFTLTISRLEPEDFAVYYCQQYQVWPLTFGQGTKVEIK", 1.0],
  ["A02_Rd4_0.6nM_C06 (antibody, V domains shown, IgG) VH: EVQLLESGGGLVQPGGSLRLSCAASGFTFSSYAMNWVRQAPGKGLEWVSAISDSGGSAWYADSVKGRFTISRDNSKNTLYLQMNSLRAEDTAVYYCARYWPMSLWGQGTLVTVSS VL: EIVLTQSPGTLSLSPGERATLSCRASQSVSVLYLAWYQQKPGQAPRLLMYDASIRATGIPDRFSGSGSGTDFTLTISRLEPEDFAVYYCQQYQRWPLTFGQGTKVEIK", 1.0],
  ["COMBO_Rd4_0.6nM_C04 (antibody, V domains shown, IgG) VH: EVQLLESGGGLVQPGGSLRLSCAASGFTFSSYPMSWVRQAPGKGLEWVSAHIGSGGSTYYADSVKGRFTISRDNSKNTLYLQMNSLRAEDTAVYYCARYWPMDSWGQGTLVTVSS VL: EIVLTQSPGTLSLSPGERATLSCRASQSVSSTYLAWYQQKPGQAPRLLMYDASIRATGIPDRFSGSGSGTDFTLTISRLEPEDFAVYYCQQYQSWPLTFGQGTKVEIK", 1.0]
]}

Cited source: patent US20160297884A1
